- system.tested: rat B1R (bradykinin receptor 1) (Rattus norvegicus, UniProt P97583)
- Construct: expressed in transfected cells; host or cells: CHO K1 cells
- Sequence (P97583 1-337): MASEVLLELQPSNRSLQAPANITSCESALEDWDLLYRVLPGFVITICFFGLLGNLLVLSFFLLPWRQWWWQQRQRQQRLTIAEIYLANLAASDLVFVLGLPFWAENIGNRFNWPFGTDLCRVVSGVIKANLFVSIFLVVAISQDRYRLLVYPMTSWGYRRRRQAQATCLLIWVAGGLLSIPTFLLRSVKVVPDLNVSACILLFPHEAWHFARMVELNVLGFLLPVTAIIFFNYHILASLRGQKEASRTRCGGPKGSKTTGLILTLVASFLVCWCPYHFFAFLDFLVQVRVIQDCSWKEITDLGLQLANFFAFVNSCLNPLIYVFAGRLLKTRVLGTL
- protocol.description: FLIPR Ca2+ assay (Fluo-4) on CHO K1 cells stably transfected with the B1R gene of the rat (rB1R cells): % inhibition at 10 μM / IC50, agonist Des-Arg9-bradykinin
- Format: cell-based
- applied.conditions: CHO-K1, rat B1R
readout.name: inhibition at 10 µM (%)

Reference set, count: 2
> print(dat)
                                   molecule  observed.measurement
1  CN(C(=O)C1CCCCC1)C1CCc2ccc(C(=O)N3CCC4(CC3)CCN(c3ccncc3)CC4)cc21 (stereo not shown)                   105
2  O=C(NC1CCc2ccc(C(=O)N3CCC4(CCN(CCCc5cccc(F)c5)CC4)CC3)cc21)c1cc(C(F)(F)F)ccc1Cl (stereo not shown)                    80

I: Cn1nc(C(C)(C)C)cc1C(=O)N1CCC2(CCN(C(=O)c3ccc4c(c3)C(NC(=O)c3sccc3Cl)CC4)C2)CC1 (stereo not shown)
II: O=C(c1cccc2c1CC[C@H]2N1Cc2cccc(Cl)c2C1=O)N1CCC2(CC1)CCN(c1ccncc1)CC2
Q: Please indicate which has the smaller reported inhibition at 10 µM: I , or II . Bench note: the answer is the label of the chosen record.
A: II
